- protocol_details: folding stability dG unfold from chymotrypsin proteolysis; higher = more stable
attribute_measured: folding stability dG unfold (kcal/mol)
Write the answer as a number in kcal/mol, unit excluded.

sequence_content	readout_units	folding stability dG unfold
SAGGGKLFVTEDAVLLELLYPETGEPYLAVFNPPTGLVTVYFPNRLKALFKIDPDGNLTLVKIEPANSAGGS [r16_127_TrMRF]	kcal/mol	2.98
SAGGSAGGMKYLDVVLHPDTGATYSSLEEIKASSSGPFQIKTGDGKWIYLPVEELSSLPTPLASSAGGSAGG [r6_685_JUSTAS]	kcal/mol	0.331
SAGGSAFRVQTWDDGKPRKIPIGESLDDLKDQIDDNPNYPIYIEFPNGKPFHMPWSDIKNMIDQLKSAGGSA [r15_36_TrROS]	kcal/mol	-0.196
SAGGSAGGSAPDIKILEPLEVDPDNGMITLKIELPGDGKVHEAIFFNPDGEPMMKFTIEIPKSAGGSAGGSA [r18_296_TrROS]	kcal/mol	0.358
SAGGMTTTTVEVKRLPNGSIERTLKTTVPLPNGDLVVTTTKSIVYREDGKVVKEEVLETETTLLPATSAGGS [r8_36_JUSTAS]	kcal/mol	2.92

As a next step, examine the sequence that follows.
Asked: Give the measured folding stability dG unfold of SAGGKTVVIELDGARIEFNEDDGTITVWMPREELEALKAALPPGAEIVEVRERPDGWVQVTIRITPPSAGGS [r8_415_TrROS_Hall] .
Given back: 4.21
